- system_tested: Vascular endothelial growth factor receptor 2 (Homo sapiens, UniProt P35968)
- Sequence (P35968 whole entry): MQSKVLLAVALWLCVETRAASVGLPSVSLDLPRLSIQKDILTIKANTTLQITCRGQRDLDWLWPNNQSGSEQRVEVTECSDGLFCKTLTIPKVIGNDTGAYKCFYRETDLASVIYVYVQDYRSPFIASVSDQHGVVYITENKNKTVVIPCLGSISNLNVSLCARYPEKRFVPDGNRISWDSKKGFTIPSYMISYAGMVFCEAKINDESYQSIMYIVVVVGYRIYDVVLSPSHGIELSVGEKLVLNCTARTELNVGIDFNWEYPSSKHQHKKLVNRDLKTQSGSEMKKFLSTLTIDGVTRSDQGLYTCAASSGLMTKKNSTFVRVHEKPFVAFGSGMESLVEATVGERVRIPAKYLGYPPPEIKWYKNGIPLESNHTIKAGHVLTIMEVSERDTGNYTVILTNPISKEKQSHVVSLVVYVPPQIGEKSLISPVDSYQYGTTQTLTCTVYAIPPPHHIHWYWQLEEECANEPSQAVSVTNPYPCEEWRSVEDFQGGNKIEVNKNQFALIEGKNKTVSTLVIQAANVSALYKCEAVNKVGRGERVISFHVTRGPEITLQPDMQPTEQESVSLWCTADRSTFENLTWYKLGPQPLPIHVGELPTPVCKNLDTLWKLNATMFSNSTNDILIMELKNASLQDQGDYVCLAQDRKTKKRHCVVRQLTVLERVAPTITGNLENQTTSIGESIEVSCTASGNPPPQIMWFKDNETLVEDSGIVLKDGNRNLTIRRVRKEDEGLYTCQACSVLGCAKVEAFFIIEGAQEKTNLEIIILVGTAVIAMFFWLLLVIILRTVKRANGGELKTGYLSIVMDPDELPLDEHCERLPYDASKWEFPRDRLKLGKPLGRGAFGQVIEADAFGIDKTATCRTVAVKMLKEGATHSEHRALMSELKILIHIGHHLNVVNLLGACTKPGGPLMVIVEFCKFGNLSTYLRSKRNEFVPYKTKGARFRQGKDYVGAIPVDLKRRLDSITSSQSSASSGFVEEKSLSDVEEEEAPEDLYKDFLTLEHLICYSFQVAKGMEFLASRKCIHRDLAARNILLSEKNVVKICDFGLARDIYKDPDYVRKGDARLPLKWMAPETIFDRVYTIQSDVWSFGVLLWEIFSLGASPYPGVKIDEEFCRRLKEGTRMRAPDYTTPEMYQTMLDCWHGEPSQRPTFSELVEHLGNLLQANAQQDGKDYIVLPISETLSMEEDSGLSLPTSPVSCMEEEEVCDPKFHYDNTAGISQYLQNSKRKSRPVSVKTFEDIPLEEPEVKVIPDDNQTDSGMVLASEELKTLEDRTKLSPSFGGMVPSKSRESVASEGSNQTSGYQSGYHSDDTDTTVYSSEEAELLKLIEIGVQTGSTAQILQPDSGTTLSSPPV
measurement_kind: pIC50
Expect pIC50 as a plain number equal to -log10 of the molar concentration.

Cc1ccc(-n2cc(NC(=O)c3cccc(NS(=O)(=O)c4ccc(Cl)cc4)c3)cn2)cc1 ... 6.47

Note: attention shifts to another entry.
Observed pIC50 on Vascular endothelial growth factor receptor 2 (Homo sapiens, UniProt P35968) for COc1cccc(-n2cc(NC(=O)c3cccc(NS(=O)(=O)c4ccc(Cl)cc4)c3)cn2)c1 , please.
5.22

----------
Consider the following compounds and their measured CC50 at 48 h readings.
- protocol: Cytotoxicity in HEK293T cells assessed as reduction in cell viability incubated for 48 hrs by MTT assay
- Format: cell-based, HEK-293T
- condition_info: human

O=C(Nc1cnn(-c2ccccc2)c1)c1cccc(NS(=O)(=O)c2ccc(Cl)cc2)c1 ... 120 µM
O=C(Nc1cnn(-c2ccccc2)c1)c1cccc(NS(=O)(=O)c2ccccc2)c1 ... 110 µM
Cc1ccc(-n2cc(NC(=O)c3ccc(NS(=O)(=O)c4ccc(Cl)cc4)cc3)cn2)cc1 ... 138 µM
COc1cccc(-n2cc(NC(=O)c3cccc(NS(=O)(=O)c4ccc(Cl)cc4)c3)cn2)c1 ... 133 µM

May I ask what CC50 at 48 h has been recorded for COc1ccc(-n2cc(NC(=O)c3cccc(NS(=O)(=O)c4ccc(Cl)cc4)c3)cn2)cc1 ?
89.8 µM

May I ask what CC50 at 48 h has been recorded for Cc1ccc(-n2cc(NC(=O)c3ccc(NS(=O)(=O)c4ccccc4)cc3)cn2)cc1 ?
107 µM

May I ask what CC50 at 48 h has been recorded for Cc1ccc(-n2cc(NC(=O)c3cccc(NS(=O)(=O)c4ccccc4)c3)cn2)cc1 ?
93.8 µM

May I ask what CC50 at 48 h has been recorded for Cc1ccc(-n2cc(NC(=O)c3cccc(NS(=O)(=O)c4ccc(Cl)cc4)c3)cn2)cc1 ?
110 µM

May I ask what CC50 at 48 h has been recorded for COc1cc2c(Nc3ccc(Br)cc3F)ncnc2cc1OCC1CCN(C)CC1 [VANDETANIB] ?
172 µM

May I ask what CC50 at 48 h has been recorded for O=C(Nc1cnn(-c2ccccc2)c1)c1ccc(NS(=O)(=O)c2ccc(Cl)cc2)cc1 ?
125 µM
